These entries and their values trace back to PubChem BioAssay.

# TESTED_SYSTEM: Alpha-2C adrenergic receptor (Homo sapiens) (UniProt P18825)
# Sequence (P18825 whole entry, looked up): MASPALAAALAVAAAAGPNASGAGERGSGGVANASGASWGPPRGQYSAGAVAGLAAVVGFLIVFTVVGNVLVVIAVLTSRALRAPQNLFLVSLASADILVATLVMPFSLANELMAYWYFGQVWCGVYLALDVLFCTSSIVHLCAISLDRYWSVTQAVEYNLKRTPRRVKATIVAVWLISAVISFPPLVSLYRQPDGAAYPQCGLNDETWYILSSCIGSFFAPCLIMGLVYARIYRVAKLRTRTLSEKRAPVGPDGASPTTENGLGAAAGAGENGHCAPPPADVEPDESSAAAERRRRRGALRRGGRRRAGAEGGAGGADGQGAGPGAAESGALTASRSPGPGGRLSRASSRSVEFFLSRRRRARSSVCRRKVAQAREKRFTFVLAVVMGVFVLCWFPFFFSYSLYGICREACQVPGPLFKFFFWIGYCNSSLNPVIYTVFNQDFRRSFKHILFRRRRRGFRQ
# METHOD_DESCRIPTION: modulators of alpha2C/GIRK thallium flux, primary screen, cell-based, HEK293 alpha2C/GIRK1/2 (AID 624);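 further: slope of fluorescence ratio to pre-addition baseline per second over 15 to 24 s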
# SETUP_CONDITIONS: thallium flux BTC fluorescence, at 10 µM, actives lie on both sides
TEST_READOUT: slope
Numbers only.

Consider the following illustrative entries.
INSERT INTO assay_data (molecule, reported_measurement) VALUES
  ('C=CCn1c(SCc2ccc(C#N)cc2)nnc1-c1cccc(Cl)c1', 0.00297),
  ('Cn1c(C(=O)Nc2ccc3c(c2)OCO3)cc2c(=O)n(C)c3ccccc3c21', 0.00554),
  ('CCCCCn1c(CN2CCN(C)CC2)nc2c1c(=O)n(C)c(=O)n2C', 0.00637),
  ('Cc1cc(NS(=O)(=O)c2ccc(NC(=O)Nc3ccc4c(c3)OCO4)cc2)no1', 0.00596);

Batch lookup, slope per entry.
1. CCOC(=O)C(NC(C)=O)(NS(=O)(=O)c1ccccc1)C(F)(F)F (stereo not drawn)
2. CCC(C)Nc1nc2c(c(=O)n(C)c(=O)n2C)n1Cc1ccc(F)cc1 (stereo not drawn)
3. CC1(CC(=O)O)C(=O)N=C2C=CC=CN21 (stereo not drawn)
4. COc1ccc(N2C(N)=C(C#N)C(c3cccnc3)C3=C2CC(C)(C)CC3=O)cc1 (stereo not drawn)
5. O=C(NC1CCCCC1)C(c1ccccc1)N(Cc1ccco1)C(=O)Cn1cnc2ccccc21 (stereo not drawn)
6. NCCCCCc1nnc(SC/C=C/c2ccccc2)o1

1: 0.00712; 2: 0.00579; 3: 0.0089; 4: 0.00535; 5: 0.00243; 6: 0.00602

Batch request: slope for each of the following molecules.
1. O=C(CC1Oc2ccc(Cl)cc2NC1=O)NC1CCCCCC1 (stereo not drawn)
2. CCCCCn1c(CN2CCN(C(=O)c3ccco3)CC2)nc2c1c(=O)n(C)c(=O)n2C
3. Cc1ccc(C)c(N2CCN(C(=O)c3cc4ccccn4n3)CC2)c1
4. COc1cc(C)c(N)cc1C(C)C

0.00511
0.00727
0.00707
0.00295
